Item-by-item account of absorption maximum
- assay comment: solvent given as SMILES
- test parameters: in ClCCl
Report only the number, with the unit nm understood.

Some entries whose results are on file:
The reported absorption maximum of the compound C(=C\c1nc2c(c(N3CCOCC3)n1)CCCC2)/c1ccccc1 was 284

The compound C(=C\c1ccc(-c2cccc3ccccc23)s1)/c1cccs1 showed absorption maximum equal to 370

Value of measured absorption maximum for the entry CCN(CC)c1ccc2c(c1)oc(=O)c1cc3c(C)nn(-c4ccccc4)c3nc12 : 377

// recorded absorption maximum for COc1ccc(N(c2ccc(OC)cc2)c2ccc3c4cccc5c(N(c6ccc(OC)cc6)c6ccc(OC)cc6)ccc(c6cccc2c63)c54)cc1 : 514

Entry C[Si]1(C)C(c2ccccc2)=Cc2ccccc21 ; absorption maximum = 333

Continuing:
Input O=c1oc2ccccc2c2c1c(=O)oc1cc(O)cc(O)c12 . Output absorption maximum: 385

// sample CCCCn1c2ccc3ccc4ccccc4c3c2c2c3c(ccc4ccccc43)ccc21 , its absorption maximum was 337

Data point: CCN1c2ccc(-c3cc(-c4ccccc4)[nH]n3)cc2Sc2cc(-c3cc(-c4ccccc4)[nH]n3)ccc21 ; absorption maximum = 336

// field: absorption maximum; key: COCCOCCOCCOCC(COCCOCCOCCOC)Oc1cc(/C=C/c2ccc(/C=C/[N+](=O)[O-])cc2)c(OC(COCCOCCOCCOC)COCCOCCOCCOC)cc1/C=C/c1ccc(/C=C/[N+](=O)[O-])cc1 ; value = 447
